Please provide measured cytotoxicity at 10 µM for the entries that follow.
assay: Toxicity liver stage against HepG2, at 10uM; format: cell-based; design: test concentration 10 uM, cell line HepG2-A16-CD81EGFP; details: human, HepG2-A16-CD81EGFP cells; read-out: INHIBITION
Unit % implied. Number only.

Lab book: cytotoxicity at 10 µM of CN(C)C(=O)Cn1cc(C(=O)N2CCCc3cccc(F)c32)nn1 noted as 1.81

// cytotoxicity at 10 µM value for COc1ncnc(N)c1CNCC(C)SC (stereo unspecified) : -0.554

Summary for this compound, CN(Cc1nnc(C2CC2)n1C)C1CCN(CCc2ccncc2)C1 (stereo unspecified) : cytotoxicity at 10 µM is -4.56

cytotoxicity at 10 µM reported for this compound CCn1c(C2CCN(C(=O)c3cc(C4CC4)on3)CC2)nn(C)c1=O : -5.82

Record O=C(c1cnc(COc2ccccc2)nc1O)N1CCOCC1 , field cytotoxicity at 10 µM: 2.55

Form field cytotoxicity at 10 µM, entry COCC1CC2(CCNCC2)CN1c1ncccn1 (stereo unspecified) : 7.51
